# assay protocol: qHTS RealTime-Glo MT Cell Viability Assay in HEK293 cells - 32 hour (AID 1224868); also: nearly all actives have a fitted effect of over 50% in size
# condition description: RealTime-Glo luminescence; series mostly up to 76.8 µM
Inconclusive results are not listed. Active and inactive are the calls of the source. Calls follow the shape of the dose curve; as a rule, active = well fitted cell-killing curve with a large enough effect in the repeat runs; inconclusive = weak or mixed curves, or effect the other way; inactive = flat fitted curve, though single readings scatter.
Outcomes you can answer with include only these: 1 = active, 0 = inactive

IN: I'd appreciate the recorded outcome for `Cc1c(Cn2ccnc2)c2ccccc2n1CCC(=O)O` from this test.
OUT: 0

IN: I'd appreciate the recorded outcome for `Cc1ccc(C(C)c2ccc(C)c(C)c2)cc1C` from this test.
OUT: 0

IN: I'd appreciate the recorded outcome for `CC[C@H](C)[C@H](N)C(=O)O` from this test.
OUT: 0

IN: I'd appreciate the recorded outcome for `NCCCN(CCO)CCO` from this test.
OUT: 0

IN: I'd appreciate the recorded outcome for `CC(C)c1cccc(C(C)C)c1NC(=O)NS(=O)(=O)c1cc(C(C)(C)O)co1` from this test.
OUT: 0

IN: I'd appreciate the recorded outcome for `CC(C)(C)c1cc(CCC(=O)OCC(COC(=O)CCc2cc(C(C)(C)C)c(O)c(C(C)(C)C)c2)(COC(=O)CCc2cc(C(C)(C)C)c(O)c(C(C)(C)C)c2)COC(=O)CCc2cc(C(C)(C)C)c(O)c(C(C)(C)C)c2)cc(C(C)(C)C)c1O` from this test.
OUT: 0

IN: I'd appreciate the recorded outcome for `NCc1ccccc1` from this test.
OUT: 0

IN: I'd appreciate the recorded outcome for `CC1=CC(=O)/C(=C(/C)O)C(=O)O1` from this test.
OUT: 0

IN: I'd appreciate the recorded outcome for CC/C(=C\C(=N/O)C(N)=O)C(C)[N+](=O)[O-] (stereo not given) from this test.
OUT: 0

IN: I'd appreciate the recorded outcome for `Cc1ccc(C)o1` from this test.
OUT: 0

IN: I'd appreciate the recorded outcome for `N#Cc1c(F)cccc1F` from this test.
OUT: 0

IN: I'd appreciate the recorded outcome for `CC(C)(C)C(=O)OCOP(=O)(COCCn1cnc2c(N)ncnc21)OCOC(=O)C(C)(C)C` from this test.
OUT: 1

IN: I'd appreciate the recorded outcome for `O=CNc1ccccc1` from this test.
OUT: 0

IN: I'd appreciate the recorded outcome for `c1ccc(CNCc2ccccc2)cc1` from this test.
OUT: 0

IN: I'd appreciate the recorded outcome for `O=C1Nc2cc(Cl)ccc2Oc2ccccc21` from this test.
OUT: 0

IN: I'd appreciate the recorded outcome for `Cc1cc(CC(=O)O)c(C)n1-c1ccc(Cl)cc1` from this test.
OUT: 0

IN: I'd appreciate the recorded outcome for `CC(C)(Oc1ccc(Cl)cc1)C(=O)OCCCOC(=O)C(C)(C)Oc1ccc(Cl)cc1` from this test.
OUT: 0

IN: I'd appreciate the recorded outcome for `O=S1(=O)c2cccc3cccc(c23)N1CCCN1CCN(c2ccc(F)cc2)CC1` from this test.
OUT: 0

IN: I'd appreciate the recorded outcome for `O=C1CCCCCO1` from this test.
OUT: 0

IN: I'd appreciate the recorded outcome for CCCCOC(O)CC (stereo not given) from this test.
OUT: 0

IN: I'd appreciate the recorded outcome for `Cn1c(NCCN(CCO)CCCc2ccc([N+](=O)[O-])cc2)cc(=O)n(C)c1=O` from this test.
OUT: 0

IN: I'd appreciate the recorded outcome for CCCCCC(CO)CCC (stereo not given) from this test.
OUT: 0

IN: I'd appreciate the recorded outcome for NC1CCN(c2nc3c(cc2F)c(=O)c(C(=O)O)cn3-c2ccc(F)cc2F)C1 (stereo not given) from this test.
OUT: 0

IN: I'd appreciate the recorded outcome for `CC(=O)c1ccc2c(c1)[C@H](NC(=O)c1ccc(F)cc1)[C@@H](O)C(C)(C)O2` from this test.
OUT: 0

IN: I'd appreciate the recorded outcome for `O=C(Cl)c1ccc([N+](=O)[O-])cc1` from this test.
OUT: 0

Data origin, for the record: PubChem BioAssay (Tox21)
